So I've got a bunch of compounds here, and I need their GI50 values.
Tested on: DLD-1
Assay: NCI tumour cell line growth inhibition, 48 h
Calls of active or inactive are those of the source. Cut-off read from the data, not from the text of the source: active = GI50 up to about 1.1 µM and inactive = higher.

Input line: // returns reported GI50 for input `Cc1cc2c(C)n[nH]c2c(C(=O)O)c1C`
Output line: > 100 µM (inactive)

Input line: Which GI50 value is on record for COc1ccc(NC(=O)CC2S/C(=N\c3ccccc3C)NC2=O)c([N+](=O)[O-])c1 (centres undefined) ?
Output line: > 100 µM (inactive)

Input line: Looking for the measured GI50 of CC1(C)C2CCC3(C2)CS(=O)(=O)N2OC231 (centres undefined) , can you help?
Output line: 23.7 µM (inactive)

Input line: May I ask what GI50 has been recorded for `O=C(/C=C/c1ccc(Cl)cc1)c1ccncc1` ?
Output line: 41 µM (inactive)
